Target desc: T1, human C-KIT-Fc (human, UniProt P10721 26-524)
T1 construct: also called biotinylated human C-KIT-Fc; not shown: Fc part not described
Test name: HTRF competition vs Tb-h37M IgG1
Quantity kind: IC50 (mg/L)
# value in mg/L; strip the unit string

Binder: C-A7 (antibody, IgG1, V domains shown, IgG1; also called C-KIT-C-A7) VH: QVQLVQSGAEVKKPGASVKVSCKASGYTFTDYYMNWVRQAPGQGLEWIGRIYPGSGNTYYAQKFQGRVTMTRDTSTSTVYMELSSLRSEDTAVYYCARGVYYFDSWGQGTLVTVSS VL: DIQMTQSPSSLSASVGDRVTITCRASQGVRNNVAWFQQKPGKAPKSLIYYASSLQSGVPSRFSGSGSGTDFTLTISSLQPEDFATYYCQQYNSYPRTFGGGTKVEIK
Unit name: mg/L
IC50: 0.037

Binder: C-B12 (antibody, IgG1, V domains shown, IgG1; also called C-KIT-C-B12) VH: QVQLVQSGAEVKKPGASVKVSCKASGYTFTDYYMNWVRQAPGQGLEWMGRIYPGSGNTYYAQKFQGRVTMTRDTSTSTVYMELSSLRSEDTAVYYCARGVYEFDYWGQGTLVTVSS VL: DIQMTQSPSSLSASVGDRVTITCRASQGVRNNLAWFQQKPGKAPKSLIYAASYRQSGVPSRFSGSGSGTDFTLTISSLQPEDFATYYCQQYNSYPRTFGGGTKVEIK
Unit name: mg/L
IC50: 0.066

Data request: Which measured IC50 value corresponds to MH5, human IgG1 (antibody, V domains shown, IgG1; also called C-KIT-MH5; C-KIT-MHS) VH: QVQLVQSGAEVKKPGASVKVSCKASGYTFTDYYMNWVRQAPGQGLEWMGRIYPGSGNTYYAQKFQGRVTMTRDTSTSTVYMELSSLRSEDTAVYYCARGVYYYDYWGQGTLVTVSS VL: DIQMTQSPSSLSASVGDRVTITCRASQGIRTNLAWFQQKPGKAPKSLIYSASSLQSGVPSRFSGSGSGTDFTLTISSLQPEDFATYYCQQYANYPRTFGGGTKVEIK ?
Data returned: 0.063
